Measured OD450, listed per entry for reference.
# TESTED SYSTEM: T1, human MSLN-R3-3 polypeptide (human)
# T1 construct: also called human MSLN-R3-3 protein; hMSLN-R3-3
# METHOD: ELISA on coated antigen, antibody 10 nM
Please reply with the bare figure in OD450 and do not write the unit itself.

Given item S009-F2.38.12 (antibody, human IgG1, kappa, V domains shown, Human-murine chimeric antibody: murine VH/VL on human IgG1 heavy and kappa light constant regions) VH: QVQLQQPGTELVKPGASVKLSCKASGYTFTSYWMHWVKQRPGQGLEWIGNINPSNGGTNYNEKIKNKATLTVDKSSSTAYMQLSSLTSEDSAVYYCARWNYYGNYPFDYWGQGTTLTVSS VL: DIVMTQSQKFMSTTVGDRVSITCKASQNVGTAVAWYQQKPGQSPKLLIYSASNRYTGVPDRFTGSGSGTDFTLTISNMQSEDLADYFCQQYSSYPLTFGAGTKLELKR , the value recorded as its OD450 is 0.05

S009-F2.16.10 (antibody, human IgG1, kappa, V domains shown, Human-murine chimeric antibody: murine VH/VL on human IgG1 heavy and kappa light constant regions) VH: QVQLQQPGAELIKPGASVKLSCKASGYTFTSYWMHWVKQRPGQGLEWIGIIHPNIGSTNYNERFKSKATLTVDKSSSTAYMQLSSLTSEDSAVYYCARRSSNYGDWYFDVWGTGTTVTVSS VL: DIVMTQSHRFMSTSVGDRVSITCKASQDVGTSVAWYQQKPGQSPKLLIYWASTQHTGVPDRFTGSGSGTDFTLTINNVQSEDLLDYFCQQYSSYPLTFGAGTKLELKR has a reported OD450 of 0.05

Short answer for S009-F2-56.12 (antibody, human IgG1, kappa, V domains shown, Human-murine chimeric antibody: murine VH/VL on human IgG1 heavy and kappa light constant regions) VH: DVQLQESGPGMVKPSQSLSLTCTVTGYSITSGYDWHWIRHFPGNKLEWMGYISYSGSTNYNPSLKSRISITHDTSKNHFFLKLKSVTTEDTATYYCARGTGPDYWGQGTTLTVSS VL: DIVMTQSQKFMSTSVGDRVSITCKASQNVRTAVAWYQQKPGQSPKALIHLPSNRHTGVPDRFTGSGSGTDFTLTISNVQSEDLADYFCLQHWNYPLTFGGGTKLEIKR : OD450 was 0.07

// field: OD450; key: S009-F2.23.12 (antibody, human IgG1, kappa, V domains shown, Human-murine chimeric antibody: murine VH/VL on human IgG1 heavy and kappa light constant regions) VH: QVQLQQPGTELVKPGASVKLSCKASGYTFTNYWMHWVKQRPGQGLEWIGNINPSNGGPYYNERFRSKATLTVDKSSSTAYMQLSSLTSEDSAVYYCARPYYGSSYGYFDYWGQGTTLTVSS VL: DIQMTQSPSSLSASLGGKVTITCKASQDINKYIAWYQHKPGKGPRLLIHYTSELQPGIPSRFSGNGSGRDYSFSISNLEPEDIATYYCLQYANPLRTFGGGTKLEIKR ; value = 0.05

# OD450 of S009-F2.13.3 (antibody, human IgG1, kappa, V domains shown, Human-murine chimeric antibody: murine VH/VL on human IgG1 heavy and kappa light constant regions) VH: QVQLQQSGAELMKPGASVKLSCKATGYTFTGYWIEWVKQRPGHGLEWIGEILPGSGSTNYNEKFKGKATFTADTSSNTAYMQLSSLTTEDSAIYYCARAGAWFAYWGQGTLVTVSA VL: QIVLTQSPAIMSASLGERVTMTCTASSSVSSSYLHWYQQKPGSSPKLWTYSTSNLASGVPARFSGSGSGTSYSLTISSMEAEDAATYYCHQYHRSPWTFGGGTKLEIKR = 0.07

Item: S009-F2.58.8 (antibody, human IgG1, kappa, V domains shown, Human-murine chimeric antibody: murine VH/VL on human IgG1 heavy and kappa light constant regions) VH: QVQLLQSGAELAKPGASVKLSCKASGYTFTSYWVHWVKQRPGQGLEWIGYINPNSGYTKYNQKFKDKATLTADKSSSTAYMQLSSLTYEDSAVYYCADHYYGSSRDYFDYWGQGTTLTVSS VL: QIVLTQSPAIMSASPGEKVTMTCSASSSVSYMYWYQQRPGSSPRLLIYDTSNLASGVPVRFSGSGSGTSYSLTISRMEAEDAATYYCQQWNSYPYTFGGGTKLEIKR | OD450: 0.06

For this binder ( S009-F2.21.4 (antibody, human IgG1, kappa, V domains shown, Human-murine chimeric antibody: murine VH/VL on human IgG1 heavy and kappa light constant regions) VH: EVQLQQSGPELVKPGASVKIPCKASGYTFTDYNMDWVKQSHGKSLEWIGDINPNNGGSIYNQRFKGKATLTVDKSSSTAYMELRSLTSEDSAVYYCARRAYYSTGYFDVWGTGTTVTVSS VL: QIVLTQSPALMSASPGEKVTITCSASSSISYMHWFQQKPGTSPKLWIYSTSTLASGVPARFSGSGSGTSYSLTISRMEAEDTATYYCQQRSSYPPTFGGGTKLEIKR ), measured OD450 is 0.05
